TARGET_ENTITY: T1, 4H968-bH
T1 chain: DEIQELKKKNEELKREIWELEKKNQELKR
TEST_SUMMARY: two-hybrid library CCNG1;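 further: natural log of median RNA to DNA barcode read ratio; higher means stronger binding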
Exercise: state measured interaction score for each of the binders provided.
Reply with just the number.

Asked: What interaction score value was documented for this binder, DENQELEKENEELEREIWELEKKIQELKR [4H1158-bH] ?
Given back: 0.725

Asked: Next record, please: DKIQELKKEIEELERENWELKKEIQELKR [4H2586-bH]
Given back: -0.864

Asked: For DEIQELEKKIEELKRENWELKKEIQELKR [4H346-bH] then?
Given back: -0.466

Asked: Item: DEIQELKKKIEELERENWELKKKIQELER [4H797-bH]
Given back: -0.0614

Asked: And for DEIQELKKKNEELERENWELEKKIQELKR [4H918-bH] ?
Given back: -0.174

Asked: Same again, this time with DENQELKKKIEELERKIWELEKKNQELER [4H1831-bH]
Given back: -2.37

Asked: Try this binder too: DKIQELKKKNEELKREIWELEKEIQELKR [4H3010-bH]
Given back: 0.0625

Origin of the recorded values: paper PMC10397247
